Catalogue of IC50 readings, one per entry.
# STUDY_SYSTEM: UniProtKB O94966
# Sequence (O94966 1-1318): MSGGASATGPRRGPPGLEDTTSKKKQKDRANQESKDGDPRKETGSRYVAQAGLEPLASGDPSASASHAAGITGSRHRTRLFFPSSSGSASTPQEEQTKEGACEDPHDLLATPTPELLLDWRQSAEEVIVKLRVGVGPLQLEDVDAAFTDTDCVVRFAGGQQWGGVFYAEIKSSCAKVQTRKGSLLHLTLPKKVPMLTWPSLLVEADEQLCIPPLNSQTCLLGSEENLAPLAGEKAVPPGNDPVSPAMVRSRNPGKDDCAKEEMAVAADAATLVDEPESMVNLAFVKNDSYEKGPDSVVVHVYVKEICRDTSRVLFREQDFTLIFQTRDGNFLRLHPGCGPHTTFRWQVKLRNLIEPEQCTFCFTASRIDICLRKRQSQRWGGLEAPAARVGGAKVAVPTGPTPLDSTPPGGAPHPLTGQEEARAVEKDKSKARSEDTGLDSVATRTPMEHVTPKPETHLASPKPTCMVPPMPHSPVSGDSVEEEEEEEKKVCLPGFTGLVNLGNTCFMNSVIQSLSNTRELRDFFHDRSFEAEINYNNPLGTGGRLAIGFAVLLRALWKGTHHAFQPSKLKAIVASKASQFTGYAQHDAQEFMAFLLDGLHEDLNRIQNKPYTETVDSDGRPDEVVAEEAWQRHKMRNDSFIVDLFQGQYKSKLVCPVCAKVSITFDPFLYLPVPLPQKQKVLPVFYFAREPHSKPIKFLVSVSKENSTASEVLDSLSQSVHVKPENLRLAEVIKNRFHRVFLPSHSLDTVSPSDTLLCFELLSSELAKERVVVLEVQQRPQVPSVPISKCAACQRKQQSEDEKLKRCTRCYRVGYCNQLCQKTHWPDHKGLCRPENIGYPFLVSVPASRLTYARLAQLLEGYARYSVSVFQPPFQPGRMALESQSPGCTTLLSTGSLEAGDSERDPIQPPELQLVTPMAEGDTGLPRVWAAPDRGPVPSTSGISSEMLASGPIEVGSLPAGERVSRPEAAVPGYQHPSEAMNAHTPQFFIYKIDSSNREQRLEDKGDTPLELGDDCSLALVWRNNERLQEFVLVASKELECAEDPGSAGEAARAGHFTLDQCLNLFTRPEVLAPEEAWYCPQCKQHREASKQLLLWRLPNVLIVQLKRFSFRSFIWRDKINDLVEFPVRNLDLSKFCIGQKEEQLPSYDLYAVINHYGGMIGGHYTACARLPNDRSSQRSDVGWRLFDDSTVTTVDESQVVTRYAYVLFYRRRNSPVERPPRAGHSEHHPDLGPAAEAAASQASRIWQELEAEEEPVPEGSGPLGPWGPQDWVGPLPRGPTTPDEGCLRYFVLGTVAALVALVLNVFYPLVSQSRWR

MOLECULE	IC50
C[C@H](CC(F)(F)F)C(=O)N1CCC(O)(Cn2cnc3nc(N4CCOCC4)ncc3c2=O)C2(CCCC2)C1 (some centres unmarked)	0.5 to 5 µM
C[C@H](CC1CCCCC1)C(=O)N1CCC(O)(CN2C(=O)COc3c(N)cccc32)C2(CCCC2)C1 (some centres unmarked)	0.5 to 5 µM
C[C@H](CC1CCCCC1)C(=O)N1CCC(O)(Cn2cnc3cc(Cl)ccc3c2=O)C2(CCCC2)C1 (some centres unmarked)	0.5 to 5 µM
O=C(N1CCC(O)(Cn2ccc(-c3ccccc3)c(F)c2=O)C2(CCCC2)C1)N1CCNC[C@H]1c1ccccc1 (some centres unmarked)	0.5 to 5 µM
C[C@H](CC1CCCCC1)C(=O)N1CCC(O)(Cn2cnc3cn(C)nc3c2=O)C2(CCCC2)C1 (some centres unmarked)	5 to 50 µM

The molecule identified as O=C(N1CC[C@@](O)(Cn2cnc(-c3ccccc3)cc2=O)C2(CCCC2)C1)N1CCNCC1c1cc(F)cc(F)c1 (mixture of isomers) registered its IC50 at < 0.5 µM

The molecule identified as `O=C(N1CC[C@@](O)(Cn2ccc(C3CC3)cc2=O)C2(CCCC2)C1)N1CCNC[C@H]1c1ccccc1` registered its IC50 at < 0.5 µM

The molecule identified as `O=C(NCc1noc(C2CC2)n1)N1CC[C@@](O)(Cn2cnc(-c3ccccc3)cc2=O)C2(CCCC2)C1` registered its IC50 at 5 to 50 µM

The molecule identified as O=C(N1CCC(O)(Cn2ccncc2=O)C2(CCCC2)C1)N1CCNC[C@H]1c1ccccc1 (some centres unmarked) registered its IC50 at 0.5 to 5 µM

The molecule identified as `O=C(NCc1cccc(F)c1)N1CC[C@@](O)(Cn2cnc(-c3ccccc3)cc2=O)C2(CCCC2)C1` registered its IC50 at < 0.5 µM

The molecule identified as C[C@H](CC(F)(F)F)C(=O)N1CCC(O)(CN2CCOCC2=O)C2(CCCC2)C1 (some centres unmarked) registered its IC50 at 50 to 250 µM

The molecule identified as C[C@H](CC1CCCCC1)C(=O)N1CCC(O)(Cn2cc(C3CC3)ncc2=O)C(C)(C)C1 (some centres unmarked) registered its IC50 at 0.5 to 5 µM
